molecular target: High affinity choline transporter 1 (Homo sapiens) (UniProt Q9GZV3); test: inhibitors of human choline transporter CHT (AID 488975); conditions: CHT-expressing cells, membrane potential dye, choline response, at 10 µM
Sequence (Q9GZV3 whole entry, looked up): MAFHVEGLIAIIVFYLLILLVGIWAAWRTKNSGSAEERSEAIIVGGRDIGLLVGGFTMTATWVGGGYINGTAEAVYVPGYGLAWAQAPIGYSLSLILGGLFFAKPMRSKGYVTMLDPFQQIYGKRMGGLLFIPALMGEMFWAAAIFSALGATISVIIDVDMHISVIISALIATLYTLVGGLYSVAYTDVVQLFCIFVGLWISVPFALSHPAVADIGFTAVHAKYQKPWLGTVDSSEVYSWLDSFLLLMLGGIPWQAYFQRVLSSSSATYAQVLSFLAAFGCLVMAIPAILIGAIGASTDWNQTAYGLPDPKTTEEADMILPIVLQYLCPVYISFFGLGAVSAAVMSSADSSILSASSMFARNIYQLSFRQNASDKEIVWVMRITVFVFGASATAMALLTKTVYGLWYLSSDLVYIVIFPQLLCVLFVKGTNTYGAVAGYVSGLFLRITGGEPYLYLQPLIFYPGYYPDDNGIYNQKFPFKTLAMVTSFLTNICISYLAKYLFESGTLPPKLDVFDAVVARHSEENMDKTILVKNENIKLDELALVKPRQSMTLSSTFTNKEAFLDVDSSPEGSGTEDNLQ
The campaign covered roughly 310,000 compounds. About 2,600 (0.84%) were called active.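 How the source made its calls: active means B-score over 3 SD under the library average, and starting fluorescence ratio not unusually high; inactive means the rest.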 The entries come from a sample that favours actives as a whole.
Labels: active, inactive

CCN(CC)c1ccc(S(=O)(=O)N2CCCCC2)cc1NC(=O)C1=COCCO1    inactive
CCN(CC)CCn1cnc2c1c(=O)[nH]c(=O)n2Cc1ccccc1    inactive
O=C(c1ccncc1)N1CCN(S(=O)(=O)c2cc(C(F)(F)F)cc(C(F)(F)F)c2)CC1    inactive
CCC1(c2ccccc2)NC(=O)N(CC(=O)c2ccc3c(c2)OCO3)C1=O (stereo not given)    inactive
Cc1onc(-c2ccccc2Cl)c1C(=O)OCc1nnc(-c2ccccc2)o1    inactive
CCN(CC)CCn1c2c(c(SCC(=O)Nc3ccc(C(C)C)cc3)nc1=O)CCC2    inactive
Cc1cc(NC(=O)C(C)SCC(=O)Nc2ccccc2N2CCCCC2)no1 (stereo not given)    inactive
COCCn1cnc2c1c(=O)n(Cc1ccc(Br)cc1)c(=O)n2Cc1ccccc1    inactive
CCN(CC)CCC(c1ccc2c(c1)OCO2)c1c(OC)cc(OC)c2c(-c3ccccc3)cc(=O)oc12 (stereo not given)    active
N=c1c2c(-c3ccccc3)c(-c3ccccc3)n(Cc3ccccc3)c2ncn1CCCO    active

====

target: High affinity choline transporter 1 (Homo sapiens) (UniProt Q9GZV3); experiment: inhibitors of human choline transporter CHT (AID 488975); conditions: CHT-expressing cells, membrane potential dye, choline response, at 10 µM
About 2,600 (0.84%) of roughly 310,000 compounds were called active.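 The calls were made as follows: active = B-score over 3 SD under the library average, and starting fluorescence ratio not unusually high; inactive = the rest.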 What follows is part of a selection rich in actives, with near analogues and random picks from the rest.
Labels: yes (1) = active, no (0) = inactive

CCOC(=O)/C(C#N)=C/c1ccc(N2CCCCC2)cc1    no (0)
CC(=O)Nc1nc2c(s1)C(=O)NCC(C)(C)C2    yes (1)
COc1ccc(Cn2c(=O)sc3ccccc32)cc1OC    yes (1)
COc1ccccc1CNC(=O)CCn1c(=O)sc2ccccc21    no (0)
Cc1cccc(CSc2nnc(Cn3c(=O)sc4ccccc43)n2C)c1    no (0)
COc1ccc(S(=O)(=O)N2CCOC2CNC(=O)C(=O)NCc2ccncc2)cc1C (stereo unspecified)    no (0)

====

biological target: High affinity choline transporter 1 (Homo sapiens); assay: inhibitors of human choline transporter CHT (AID 488975); conditions: CHT-expressing cells, membrane potential dye, choline response, at 10 µM
The campaign covered roughly 310,000 compounds. About 2,600 (0.84%) were called active.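 The calls were made as follows: active = B-score over 3 SD under the library average, and starting fluorescence ratio not unusually high; inactive = the rest.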 Only a selection was taken, and actives are over-represented in it overall.
Labels: True = active, False = inactive

O=C1c2cccc3cccc(c23)C(=O)N1CCCCCc1n[nH]c(=S)o1    True
COc1ccc(N2C(=O)C(Cc3ccccc3)NC2=S)cc1 (stereo not given)    False
CCOc1ccc(NS(=O)(=O)c2ccc(C(=O)NCC(c3ccccc3OC)N3CCCC3)cc2)cc1 (stereo not given)    False
C[N+](C)(CCCCCC[N+](C)(C)CCCN1C(=O)c2cccc3cccc(c23)C1=O)CCCN1C(=O)c2cccc3cccc(c23)C1=O    False
Cc1ccc(-c2nn(-c3ccccc3)cc2/C=C/C(=O)Nc2cccc(S(N)(=O)=O)c2)cc1    False
CCCCCCc1cc2cc(-c3nnc(-c4ccccc4)o3)c(=O)oc2cc1O    False
CNCC(O)c1ccc(O)c(O)c1 (stereo not given)    True
COC(=O)[C@]1(C)N[C@H](c2ccc(-c3ccc(Cl)c(Cl)c3)cc2)[C@@H]2C(=O)N(C)C(=O)[C@@H]21    False
CCC(C)c1ccc(O)c(/C=N/O)c1 (stereo not given)    False
COc1ccc(-c2nn(-c3ccccc3)cc2/C=C\C(=O)N2CCOCC2)cc1[N+](=O)[O-]    False

Taken from PubChem BioAssay AID488975.
